test system: SF-268; test: Growth inhibition of human SF268 cells after 48 hrs by sulforhodamine B assay; format: functional; settings: SF-268, 48 h
Reported Property: GI50

Cc1cc(C)n(C(=O)c2nn(-c3ccc(Cl)cc3)cc2O)n1    4130 nM
CC1=NN(C(=O)c2nn(-c3ccc(Cl)cc3)cc2O)C(=O)C1    490 nM
N#Cc1cnn(C(=O)c2nn(-c3ccc(Cl)cc3)cc2O)c1N    460 nM

Return reported GI50 values for all items listed beneath this line.
1. O=C1CC(=O)N(C(=O)c2nn(-c3ccc(Cl)cc3)cc2O)N1
2. O=C(c1nn(-c2ccc(Cl)cc2)cc1O)n1nc(-c2ccco2)cc1C(F)(F)F

[out]
["510 nM", "3630 nM"]

[in] Can you share its GI50? I mean this compound: "Cc1c2c(nn1C(=O)c1nn(-c3ccc(Cl)cc3)cc1O)-c1ccccc1CC2"
[out] 48 nM

* * *

test system: OVCAR-4; assay: Growth inhibition of human OVCAR4 cells after 48 hrs by sulforhodamine B assay; assay type: functional; settings: OVCAR-4, 48 h
# if measured GI50 < 2000 nM: 1.0  # else: 0.0

Cc1cc(C)n(C(=O)c2nn(-c3ccc(Cl)cc3)cc2O)n1    0.0
CC1=NN(C(=O)c2nn(-c3ccc(Cl)cc3)cc2O)C(=O)C1    0.0
Cc1c2c(nn1C(=O)c1nn(-c3ccc(Cl)cc3)cc1O)-c1ccccc1CC2    1.0

[in] Input "N#Cc1cnn(C(=O)c2nn(-c3ccc(Cl)cc3)cc2O)c1N" ; condition: GI50 strictly below 2000 nM. Does it hold?
[out] 1.0

[in] Input "O=C(c1nn(-c2ccc(Cl)cc2)cc1O)n1nc(-c2ccco2)cc1C(F)(F)F" ; condition: GI50 strictly below 2000 nM. Does it hold?
[out] 0.0

[in] Input "O=C1CC(=O)N(C(=O)c2nn(-c3ccc(Cl)cc3)cc2O)N1" ; condition: GI50 strictly below 2000 nM. Does it hold?
[out] 1.0

* * *

test: Cytotoxicity against human leukemia cells after 48 hrs by sulforhodamine B assay; type: functional; conditions: Leukemia cell
# if measured GI50 < 400 nM: Condition met  # else: Condition not met

For orientation, consider the following solved cases.
CC1=NN(C(=O)c2nn(-c3ccc(Cl)cc3)cc2O)C(=O)C1    Condition not met
Cc1cc(C)n(C(=O)c2nn(-c3ccc(Cl)cc3)cc2O)n1    Condition not met
O=C(c1nn(-c2ccc(Cl)cc2)cc1O)n1nc(-c2ccco2)cc1C(F)(F)F    Condition not met
N#Cc1cnn(C(=O)c2nn(-c3ccc(Cl)cc3)cc2O)c1N    Condition met
Cc1c2c(nn1C(=O)c1nn(-c3ccc(Cl)cc3)cc1O)-c1ccccc1CC2    Condition met

# next molecule below
[in] Input "O=C1CC(=O)N(C(=O)c2nn(-c3ccc(Cl)cc3)cc2O)N1" ; condition: GI50 strictly below 400 nM. Does it hold?
[out] Condition not met

* * *

test system: 786-0; assay: Growth inhibition of human 786-0 cells after 48 hrs by sulforhodamine B assay; type: functional; details: 786-0, 48 h
Reported Property: GI50 (µM)
Answers are plain numbers, in µM.

Return reported GI50 values for all items listed beneath this line.
1. N#Cc1cnn(C(=O)c2nn(-c3ccc(Cl)cc3)cc2O)c1N
2. Cc1c2c(nn1C(=O)c1nn(-c3ccc(Cl)cc3)cc1O)-c1ccccc1CC2
3. Cc1cc(C)n(C(=O)c2nn(-c3ccc(Cl)cc3)cc2O)n1
4. O=C(c1nn(-c2ccc(Cl)cc2)cc1O)n1nc(-c2ccco2)cc1C(F)(F)F
5. CC1=NN(C(=O)c2nn(-c3ccc(Cl)cc3)cc2O)C(=O)C1
6. O=C1CC(=O)N(C(=O)c2nn(-c3ccc(Cl)cc3)cc2O)N1

[out]
1. 0.66
2. 0.319
3. 9.64
4. 6.6
5. 6.45
6. 3.77
